target: IDH2 R140Q (Homo sapiens (Human), UniProt P48735, R140Q); assay: IDH2 R140Q enzymatic cofactor depletion assay (diaphorase/resazurin); conditions: IDH2 R140Q enzyme, one hour preincubation with compound, one hour reaction; read-out: Enz R140Q
Sequence (P48735 40-452 R140Q): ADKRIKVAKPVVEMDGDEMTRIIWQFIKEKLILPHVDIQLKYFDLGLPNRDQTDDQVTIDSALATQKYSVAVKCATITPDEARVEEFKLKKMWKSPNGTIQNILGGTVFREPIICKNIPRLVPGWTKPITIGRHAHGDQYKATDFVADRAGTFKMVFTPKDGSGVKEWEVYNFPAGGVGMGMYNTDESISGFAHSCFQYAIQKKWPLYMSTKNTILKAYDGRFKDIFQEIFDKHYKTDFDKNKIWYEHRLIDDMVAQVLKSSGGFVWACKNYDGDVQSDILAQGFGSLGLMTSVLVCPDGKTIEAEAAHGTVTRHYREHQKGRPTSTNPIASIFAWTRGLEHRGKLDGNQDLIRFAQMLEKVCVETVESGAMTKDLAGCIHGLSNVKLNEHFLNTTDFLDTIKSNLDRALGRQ
Outcome measure: IC50

> print(dat)
                                   molecule  outcome.measure            result
1  CCOc1ncc(S(=O)(=O)NCC(F)(F)F)cc1NC(=O)Nc1cc(C(F)(F)F)ccn1             IC50    100 to 1000 nM
2  C[C@@H](NS(=O)(=O)c1ccc(-c2ccsc2)c(NC(=O)Nc2cccc(C(F)(F)F)c2)c1)c1ccccc1             IC50  1000 to 10000 nM

So what does the record say about IC50 for `C[C@H](NS(=O)(=O)c1ccc(-c2ccsc2)c(NC(=O)Nc2cccc(C(F)(F)F)c2)c1)c1ccccc1` ?
1000 to 10000 nM

Please report the recorded IC50 for CC[S+]([O-])c1ccc(S(=O)(=O)NCC(F)(F)F)cc1NC(=O)Nc1cccc(C(F)(F)F)c1 (stereo not shown) .
100 to 1000 nM
